Test system: MDA-MB-231
Assay: Cytotoxicity against human MDA-MB-231 cells incubated for 1 week by CellTiter 96 Aqueous One Solution based assay
Assay type: functional, cell-based
Conditions: MDA-MB-231, 168 h
Property measured: pEC50
Answer as the number alone; pEC50 is minus log10 of concentration in mol/L.

Qu. Fill in pEC50 for record H-YGRKKRRQRRRRNQKFKCGE-OH
Ans. 5.33

* * *

Tested on: MCF7
Assay: Cytotoxicity against human MCF7 cells incubated for 1 week by CellTiter 96 Aqueous One Solution based assay
Type: functional, cell-based
Settings: MCF7, 168 h
Property measured: pEC50
Just so you know, pEC50 here is -log10 of the concentration in molar units; reply with that number alone.

Qu. Identify measured pEC50 associated with H-YGRKKRRQRRRRNQKFKCGE-OH
Ans. 5.09
